Source listed as patent US10000507B2.

- experimental_system: Pim-2 (Homo sapiens (Human), UniProt Q9P1W9)
- Sequence (Q9P1W9 whole entry): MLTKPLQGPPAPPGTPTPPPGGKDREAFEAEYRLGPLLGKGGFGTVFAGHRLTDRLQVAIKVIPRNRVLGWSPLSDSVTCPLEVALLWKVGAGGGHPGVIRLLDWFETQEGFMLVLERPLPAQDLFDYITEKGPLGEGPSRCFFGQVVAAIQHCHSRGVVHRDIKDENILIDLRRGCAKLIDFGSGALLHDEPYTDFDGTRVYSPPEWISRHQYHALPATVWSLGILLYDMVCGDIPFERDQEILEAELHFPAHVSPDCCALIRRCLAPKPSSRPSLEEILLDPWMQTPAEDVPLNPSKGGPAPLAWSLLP
pIC50: −log10 of the molar value.
observation_type: pIC50

Exam item: Sample `Nc1sc2cc(OC3CC3)cnc2c1C(=O)Nc1cnccc1N1CCC[C@H](N)C1` — what was its pIC50?
Marked response: < 5.70

Exam item: Entry Nc1sc2cccnc2c1C(=O)Nc1cnccc1N1CCCC(N)CC1 (centres unmarked) : reported pIC50 = ?
Marked response: < 5.70

Exam item: Which pIC50 is listed for `Nc1oc2cccnc2c1C(=O)Nc1cnccc1N1CCC[C@H](N)C1` ?
Marked response: 6.00 to 7.00

Exam item: Request the reported pIC50 associated with `C[C@@H]1C[C@H](N)CN(c2ccncc2NC(=O)c2c(N)oc3cc(OC(F)F)cnc23)C1`
Marked response: 7.00 to 8.00

Exam item: Bench note: what pIC50 did Nc1oc2cccnc2c1C(=O)Nc1cnccc1N1C[C@@H](N)[C@H](O)[C@@H](C(F)(F)F)C1 (single isomer, unassigned) [Example 87 (Diastereoisomer 2)] show?
Marked response: 7.00 to 8.00

Exam item: Param item = `C[C@@H]1C[C@H](N)CN(c2ccncc2NC(=O)c2c(N)oc3cc(C4CC4)cnc23)C1` ; retrieve measured pIC50.
Marked response: ≥ 8.00

Exam item: Which pIC50 value is on record for `CNC(=O)c1ccc(-c2cnc3c(C(=O)Nc4cnccc4N4C[C@H](C)C[C@H](N)C4)c(N)oc3c2)cn1` ?
Marked response: 7.00 to 8.00

Exam item: Any idea what its pIC50 is? The compound is `Nc1sc2cc(N3CCOCC3)cnc2c1C(=O)Nc1cnccc1N1C[C@@H](N)C[C@@H](C(F)(F)F)C1`
Marked response: 7.00 to 8.00

Exam item: What value of pIC50 has been reported for the following compound? `Cc1cncc(NC(=O)c2c(N)oc3cccnc23)c1N1CC[C@H](N)C1`
Marked response: 5.70 to 7.00

Exam item: What does the data say about its pIC50? Entry: `Nc1oc2cc(CN3CC(F)(F)C3)cnc2c1C(=O)Nc1cnccc1N1C[C@@H](N)C[C@@H](C(F)(F)F)C1`
Marked response: 7.00 to 8.00

Exam item: Returns the measured pIC50 for the input compound. Input: `Nc1sc2cccnc2c1C(=O)Nc1cnccc1N1CCC[C@@H](N)C1`
Marked response: < 5.70

Exam item: What value of measured pIC50 is listed for `CCCc1cnc2c(C(=O)Nc3cnccc3N3C[C@@H](N)[C@H](O)[C@@H](C)C3)c(N)oc2c1` ?
Marked response: ≥ 8.00

Exam item: What does the record list as pIC50 for `Nc1sc2cccnc2c1C(=O)Nc1cnsc1N1CCC[C@H](N)C1` ?
Marked response: 6.00 to 7.00

Exam item: Please look up its pIC50: `CC(C)c1cnc2c(C(=O)Nc3cnccc3N3C[C@@H](N)[C@H](O)[C@@H](C4CC4)C3)c(N)oc2c1`
Marked response: ≥ 8.00

Exam item: Requested field: pIC50. Item: Nc1sc2ccc(Cl)nc2c1C(=O)Nc1cnccc1N1CCC[C@H](N)C1 (stereo in doubt)
Marked response: < 5.70

Exam item: What value of pIC50 has been recorded for this entry: `CC(C)C(=O)Nc1cnc2c(C(=O)Nc3cnccc3N3C[C@@H](N)[C@H](O)[C@@H](C)C3)c(N)sc2c1`
Marked response: 7.00 to 8.00

Exam item: Find the recorded pIC50 belonging to `C[C@H]1CN(c2ccncc2NC(=O)c2c(N)oc3cc(CCCF)cnc23)C[C@@H](N)[C@@H]1O` and report it.
Marked response: ≥ 8.00

Exam item: Would you kindly share the measured pIC50 for CC(C)Oc1ccnc2c(C(=O)Nc3cnn(C)c3N3CCCC(N)CC3)c(N)sc12 (centres unmarked) ?
Marked response: 7.00 to 8.00

Exam item: For the compound shown here, `C[C@H]1C[C@@H](c2ccncc2NC(=O)c2c(N)oc3cccnc23)C[C@@H](N)[C@]1(C)O` , give the reported pIC50.
Marked response: 6.00 to 7.00

Exam item: Requested field: pIC50. Item: `CNC(=O)c1ccc(-c2cnc3c(C(=O)Nc4cnccc4N4C[C@@H](N)C[C@@H](C(F)(F)F)C4)c(N)oc3c2)cn1`
Marked response: 7.00 to 8.00

Exam item: Quick one: pIC50 for `COCCCc1cnc2c(C(=O)Nc3cnccc3N3C[C@@H](N)C[C@@H](C(F)(F)F)C3)c(N)oc2c1` ?
Marked response: ≥ 8.00

Exam item: Please report the recorded pIC50 for `C[C@@H]1C[C@H](N)CN(c2ccncc2NC(=O)c2c(N)oc3cccnc23)C1` .
Marked response: 7.00 to 8.00

Exam item: Need pIC50, item `Nc1oc2cc(C3CCC3)cnc2c1C(=O)Nc1cnccc1N1C[C@@H](N)[C@H](O)[C@@H](C2CC2)C1`
Marked response: ≥ 8.00
